- Test system: Isogenic E. coli J58 strain carrying KPC-2
- Assay protocol: MIC determination, isogenic E. coli strains
- Assay type: cell-based
- Applied conditions: Escherichia coli, 18 h, read-out: Mimimum Inhibitory Concentrations, KPC-2
Metric name: MIC (µg/mL)
One number for each entry, in µg/mL.

Use these answered entries as a reference point.
Compound: CC(C)(O/N=C(\C(=O)N[C@@H]1C(=O)N2C(C(=O)O)=C(C=Cc3ccc(C[N+]4(C)CCc5ccc(O)c(O)c5C4)cc3)CS[C@H]12)c1csc(N)n1)C(=O)O (mixture of isomers) [Compound 442]
Metric name: MIC
Number: 2
//
Compound: C#CC[N+]1(Cc2ccc(C=CC3=C(C(=O)O)N4C(=O)[C@@H](NC(=O)/C(=N\OC(C)(C)C(=O)O)c5csc(N)n5)[C@H]4SC3)cc2)CCc2cc(O)c(O)cc2C1 (mixture of isomers) [Compound 446]
Metric name: MIC
Number: 2
//
Compound: CC[N+]1(Cc2ccc(C=CC3=C(C(=O)O)N4C(=O)[C@@H](NC(=O)/C(=N\OC(C)(C)C(=O)O)c5csc(N)n5)[C@H]4SC3)cc2)CCc2cc(O)c(O)cc2C1 (mixture of isomers) [Compound 423]
Metric name: MIC
Number: 8
//
Compound: Cn1c[n+](Cc2ccc(C=CC3=C(C(=O)O)N4C(=O)[C@@H](NC(=O)/C(=N\OC(C)(C)C(=O)O)c5csc(N)n5)[C@H]4SC3)cc2)c2cc(O)c(O)cc21 (mixture of isomers) [Compound 415]
Metric name: MIC
Number: 16
//
Compound: Cc1c[n+](Cc2ccc(C=CC3=C(C(=O)O)N4C(=O)[C@@H](NC(=O)/C(=N\OC(C)(C)C(=O)O)c5csc(N)n5)[C@H]4SC3)cc2)ccc1-c1ccc(O)c(O)c1 (mixture of isomers) [Compound 422]
Metric name: MIC
Number: 16

Please look at the items below and tell me MIC for each one, in order.
1. CC(C)(O/N=C(\C(=O)N[C@@H]1C(=O)N2C(C(=O)O)=C(C=Cc3ccc(C[N+](C)(C)CCc4ccc(O)c(O)c4)cc3)CS[C@H]12)c1csc(N)n1)C(=O)O (mixture of isomers) [Compound 440]
2. CC(C)(O/N=C(\C(=O)N[C@@H]1C(=O)N2C(C(=O)O)=C(C=Cc3ccc(C[N+]4(C)CCc5c(Cl)c(O)c(O)c(Cl)c5C4)cc3)CS[C@H]12)c1csc(N)n1)C(=O)O (mixture of isomers) [Compound 429]
3. CC(C)(O/N=C(\C(=O)N[C@@H]1C(=O)N2C(C(=O)O)=C(C=Cc3ccc(C[N+](C)(C)Cc4ccc(O)c(O)c4)cc3)CS[C@H]12)c1csc(N)n1)C(=O)O (mixture of isomers) [Compound 426]
4. CC(C)(O/N=C(\C(=O)N[C@@H]1C(=O)N2C(C(=O)O)=C(C=Cc3ccc(C[N+]4(C)CCc5cc(O)c(O)cc5C4)cc3[N+](=O)[O-])CS[C@H]12)c1csc(N)n1)C(=O)O (mixture of isomers) [Compound 445]
5. COc1cc[n+](Cc2ccc(C=CC3=C(C(=O)O)N4C(=O)[C@@H](NC(=O)/C(=N\OC(C)(C)C(=O)O)c5csc(N)n5)[C@H]4SC3)cc2)cc1OC (mixture of isomers) [Compound 402]
6. CC(C)(O/N=C(\C(=O)N[C@@H]1C(=O)N2C(C(=O)O)=C(C=Cc3ccc(C[N+](C)(C)Cc4cc(O)c(O)c(Cl)c4)cc3)CS[C@H]12)c1csc(N)n1)C(=O)O (mixture of isomers) [Compound 436]

1. 16
2. 4
3. 64
4. 64
5. 64
6. 64

Please state MIC for every compound in the list that follows.
1. CC(C)(O/N=C(\C(=O)N[C@@H]1C(=O)N2C(C(=O)O)=C(C=Cc3ccc(C[N+](C)(C)Cc4ccc(O)c(O)c4Cl)cc3)CS[C@H]12)c1csc(N)n1)C(=O)O (mixture of isomers) [Compound 434]
2. CC(C)(O/N=C(\C(=O)N[C@@H]1C(=O)N2C(C(=O)O)=C(C=Cc3ccc(C[N+]4(C)Cc5cc(O)c(O)cc5C4)cc3)CS[C@H]12)c1csc(N)n1)C(=O)O (mixture of isomers) [Compound 424]
3. CC(C)(O/N=C(\C(=O)N[C@@H]1C(=O)N2C(C(=O)O)=C(/C=C/c3ccc(C[n+]4ccn(-c5ccc(O)c(O)c5)c4)cc3)CS[C@H]12)c1csc(N)n1)C(=O)O [Compound 414]
4. Cn1c[n+](Cc2ccc(C=CC3=C(C(=O)O)N4C(=O)[C@@H](NC(=O)/C(=N\OC(C)(C)C(=O)O)c5csc(N)n5)[C@H]4SC3)cc2)cc1C(=O)Nc1ccc(O)c(O)c1 (mixture of isomers) [Compound 411]
5. CC(C)(O/N=C(\C(=O)N[C@@H]1C(=O)N2C(C(=O)O)=C(C=Cc3ccc(C[N+]4(C)CCc5c(ccc(O)c5O)C4)cc3)CS[C@H]12)c1csc(N)n1)C(=O)O (mixture of isomers) [Compound 441]
6. CC(C)(O/N=C(\C(=O)N[C@@H]1C(=O)N2C(C(=O)O)=C(C=Cc3ccc(C[n+]4ccc(NC(=O)c5ccc(O)c(O)c5)cc4)cc3)CS[C@H]12)c1csc(N)n1)C(=O)O (mixture of isomers) [Compound 427]

1. 16
2. 32
3. 8
4. 32
5. 4
6. 16
